Source of measurements: ChEMBL document CHEMBL5252523

Hi there, I'd appreciate the recorded Papp at 3 h for every entry that follows.
# Measurement description: Artificial membrane permeability of the compound incubated for 3 hrs by HPLC analysis
# Assay type: ADME
# Protocol conditions: PAMPA, read-out: permeability
Quick note: give the figure in ×10⁻⁶ cm/s, leave out the unit.

Papp at 3 h reading for COc1ccc2nc(C)cc(OCc3ccc4ccccc4n3)c2c1 : 47

Papp at 3 h reading for COc1ccc2nc(C)cc(OCC(=O)NNC(=O)c3ccncc3)c2c1 : 3.3

Papp at 3 h reading for COc1ccc2nc(C)cc(OCC(=O)Nc3cc(C)c(OC)c(C)c3)c2c1 : 32

Papp at 3 h reading for COc1ccc2nc(C)cc(OCC(=O)Nc3cc(C)nc(C)n3)c2c1 : 1.2

Papp at 3 h reading for COc1ccc2nc(C)cc(OCC(=O)Nc3nc(C)c(C)s3)c2c1 : 44

Papp at 3 h reading for COc1ccc2nc(C)cc(OCC(=O)Nc3cc(OC)c(OC)c(OC)c3)c2c1 : 62

Papp at 3 h reading for COc1ccc2nc(C)cc(OCC(=O)Nc3cccc(C)c3)c2c1 : 35.5

Papp at 3 h reading for COc1ccc2nc(C)cc(OCC(=O)Nc3c(C)cccc3C)c2c1 : 63

Papp at 3 h reading for COc1ccc2nc(C)cc(OCCNc3cc(C)cc(C)c3)c2c1 : 19

* * *

Hi there, I'd appreciate the recorded pIC50 for every entry that follows.
Scale: negative log10 of molar concentration, which is what pIC50 denotes.

For the compound COc1ccc2nc(C)cc(OCC(=O)Nc3ccc(Cl)cc3)c2c1 , the measured pIC50 on Voltage-gated inwardly rectifying potassium channel KCNH2 (Homo sapiens) was 5.30

For the compound COc1ccc2nc(C)cc(OCC(=O)Nc3cc(C)ccc3OC)c2c1 , the measured pIC50 on Voltage-gated inwardly rectifying potassium channel KCNH2 (Homo sapiens) was 5.30

For the compound COc1ccc(NC(=O)COc2cc(C)nc3ccc(OC)cc23)cc1 , the measured pIC50 on Voltage-gated inwardly rectifying potassium channel KCNH2 (Homo sapiens) was 5.20

* * *

# Measurement description: Artificial membrane permeability of the compound incubated for 3 hrs by HPLC analysis
# Type: ADME
# Protocol conditions: PAMPA, read-out: permeability
Measurement type: Papp at 3 h (×10⁻⁶ cm/s)
Quick note: give the figure in ×10⁻⁶ cm/s, leave out the unit.

Papp at 3 h reading for COc1ccc2nc(C)cc(OCC(=O)Nc3ccc(Cl)c(OC)c3)c2c1 : 57

Papp at 3 h reading for Cc1cc(C)cc(NC(=O)COc2cc(C)nc3ccccc23)c1 : 37

Papp at 3 h reading for COc1ccc2nc(C)cc(OCC(=O)Nc3ccncc3)c2c1 : 56

Papp at 3 h reading for COc1ccc2nc(C)cc(OCC(=O)Nc3noc(C)c3C)c2c1 : 62.5

Papp at 3 h reading for COc1cc2nc(C)cc(OCC(=O)Nc3cc(C)cc(C)c3)c2cc1OC : 60.5

Papp at 3 h reading for COc1ccc2nc(C)cc(OCC(=O)Nc3ccc(S(=O)(=O)Nc4cc(C)on4)cc3)c2c1 : 1.5

Papp at 3 h reading for COc1cccc(NC(=O)COc2cc(C)nc3ccc(OC)cc23)c1 : 47

Papp at 3 h reading for Cc1cc(C)cc(NC(=O)COc2cc(C)nc3ccc(F)cc23)c1 : 31

Papp at 3 h reading for CCC(Oc1cc(C)nc2ccc(OC)cc12)C(=O)Nc1cc(C)cc(C)c1 (centres undefined) : 39

Papp at 3 h reading for COc1ccc2nc(C)cc(OCC(=O)Nc3ccccn3)c2c1 : 48

Papp at 3 h reading for COc1ccc(NC(=O)COc2cc(C)nc3ccc(OC)cc23)cc1 : 42

Papp at 3 h reading for COc1ccc2nc(C)cc(OCC(=O)Nc3cc(C)c(F)c(C)c3)c2c1 : 21

* * *

Hi there, I'd appreciate the recorded chromatographic logD for every entry that follows.
# Measurement description: Chromatographic hydrophobicity index, log D of the compound in phosphate buffer at pH 7.4 by UV-HPLC analysis
# Assay type: physicochemical
Reply with just the number.

chromatographic logD reading for Cc1cc(C)cc(NC(=O)COc2cc(C(F)(F)F)nc3c(C(F)(F)F)cccc23)c1 : 7.73

chromatographic logD reading for COc1ccc2nc(C)cc(OCC(=O)Nc3cc(OC)c(OC)c(OC)c3)c2c1 : 3.95

chromatographic logD reading for COc1ccc2nc(C)cc(OCC(=O)NCc3cc(C)cc(C)c3)c2c1 : 5.25

chromatographic logD reading for COc1ccc2nc(C)cc(OC3CCN(c4ccccc4)C3=O)c2c1 (centres undefined) : 4.99

chromatographic logD reading for COc1cc2nc(C)cc(OCC(=O)Nc3cc(C)cc(C)c3)c2cc1OC : 4.84

chromatographic logD reading for COc1ccc2nc(C)cc(OCC(=O)Nc3noc(C)c3C)c2c1 : 3.3

chromatographic logD reading for COc1ccc2nc(C)cc(OCC(=O)Nc3ccncn3)c2c1 : 2.53

chromatographic logD reading for COc1ccc2nc(C)cc(OCC(=O)Nc3cc(F)cc(F)c3)c2c1 : 5.13

chromatographic logD reading for CCCc1cc(OCC(=O)Nc2cc(C)cc(C)c2)c2cc(OC)ccc2n1 : 6.44

chromatographic logD reading for CCOc1ccc2nc(C)cc(OCC(=O)Nc3cc(C)cc(C)c3)c2c1 : 5.98

chromatographic logD reading for COc1ccc2nc(C)cc(OCC(=O)Nc3cc(C)ccc3OC)c2c1 : 5.65

chromatographic logD reading for COc1ccc2nc(C)cc(OCC(=O)Nc3ccc(Cl)c(C(F)(F)F)c3)c2c1 : 6.22

chromatographic logD reading for COc1ccc2nc(C)cc(OCC(=O)N(C)c3cc(C)cc(C)c3)c2c1 : 5.47

chromatographic logD reading for Cc1cc(C)cc(NC(=O)COc2cc(C(F)(F)F)nc3ccc(OC(F)(F)F)cc23)c1 : 7.96

chromatographic logD reading for CCOc1ccc2nc(C(F)(F)F)cc(OCC(=O)Nc3cc(C)cc(C)c3)c2c1 : 7.55

chromatographic logD reading for Cc1cc(C)cc(NC(=O)COc2cc(C)nc3ccc(Cl)cc23)c1 : 6.38

chromatographic logD reading for COc1ccc2nc(C)cc(OCC(=O)Nc3nc(C)c(C)s3)c2c1 : 4.24

chromatographic logD reading for COc1ccc2nc(C)cc(OCC(=O)Nc3ccc(Cl)cc3Cl)c2c1 : 6.4

chromatographic logD reading for CSc1ccc2nc(C)cc(OCC(=O)Nc3cc(C)cc(C)c3)c2c1 : 6.42

chromatographic logD reading for COc1ccc2nc(C)cc(OCC(=O)Nc3cc(C)nc(C)n3)c2c1 : 3.24

chromatographic logD reading for COc1ccc2nc(C)cc(OCC(=O)Nc3ccc(Cl)c(OC)c3)c2c1 : 5.09

chromatographic logD reading for COc1ccc2nc(C)cc(OCCNc3cc(C)cc(C)c3)c2c1 : 6.93

chromatographic logD reading for COc1ccc2nc(C)cc(OCC(=O)Nc3ccccn3)c2c1 : 3.49

chromatographic logD reading for COc1ccc2nc(C(F)(F)F)cc(OCC(=O)Nc3cc(C)cc(C)c3)c2c1 : 7.02

chromatographic logD reading for COc1ccc2nc(C)cc(NCC(=O)Nc3cc(C)cc(C)c3)c2c1 : 3.59

chromatographic logD reading for COc1ccc2nc(C)cc(NC(=O)C(=O)Nc3cc(C)cc(C)c3)c2c1 : 6.47

chromatographic logD reading for COc1ccc2nc(C)cc(OCC(=O)Nc3ccccc3)c2c1 : 4.28

chromatographic logD reading for COc1ccc(NC(=O)COc2cc(C)nc3ccc(OC)cc23)cc1 : 4.22

chromatographic logD reading for COc1ccc2nc(C)cc(OCc3nc4cc(C)ccc4o3)c2c1 : 6.12

chromatographic logD reading for COc1ccc2nc(C)cc(OCC(=O)Nc3c(C)cccc3C)c2c1 : 4.55

chromatographic logD reading for COc1ccc2nc(C)cc(OCC(=O)Nc3cc(OC)c(Cl)cc3OC)c2c1 : 5.8

chromatographic logD reading for COc1ccc2nc(C)cc(OCC(=O)Nc3ccc(Cl)cc3)c2c1 : 5.15

chromatographic logD reading for COc1ccc2nc(C)cc(OCC(=O)Nc3cc(C)cc(C)c3)c2c1 : 5.64

chromatographic logD reading for COc1ccc2nc(C)cc(OCC(=O)Nc3ccc(F)cc3)c2c1 : 4.49

chromatographic logD reading for Cc1cc(C)cc(NC(=O)COc2cc(C)nc3ccc(OC(F)(F)F)cc23)c1 : 6.79

chromatographic logD reading for COc1ccc2nc(C)cc(OCC(=O)Nc3ccccc3OC)c2c1 : 4.68

chromatographic logD reading for CCC(Oc1cc(C)nc2ccc(OC)cc12)C(=O)Nc1cc(C)cc(C)c1 (centres undefined) : 6.28

chromatographic logD reading for Cc1cc(C)cc(NC(=O)COc2cc(C)nc3ccc(C(F)(F)F)cc23)c1 : 6.67

chromatographic logD reading for COc1ccc2nc(C)cc(OCC(=O)Nc3cccnc3)c2c1 : 2.46

chromatographic logD reading for COc1cccc(NC(=O)COc2cc(C)nc3ccc(OC)cc23)c1 : 4.49

chromatographic logD reading for Cc1cc(C)cc(NC(=O)COc2cc(C)nc3ccc(OCc4ccccc4)cc23)c1 : 7.03

chromatographic logD reading for COc1ccc2nc(C)cc(OC(C)(C)C(=O)Nc3cc(C)cc(C)c3)c2c1 : 6.37

chromatographic logD reading for COc1ccc2nc(C)cc(OCC(=O)NC3CONC3=O)c2c1 (centres undefined) : 0.79

chromatographic logD reading for COc1ccc2nc(C)cc(OCc3nc4ccccc4[nH]3)c2c1 : 3.59
